All figures here come from patent US8846669B2.

test system: Linezolid and Vancomycin Resistant Enterococcus faecium (strain 10); assay: In vitro antibacterial activity, broth microdilution MIC90; format: cell-based; settings: strain 10, E. faecium VanA LR
Please respond with reported MIC90 for every item in the list.
Unit µg/mL implied. Number only.

Challenge: Recorded MIC90 of O=C1O[C@@H](CNc2ccon2)CN1c1ccc(-c2ccc(N3C=NOCC3)nc2)c(F)c1 , please.
Response given: 2

Challenge: Recorded MIC90 of O=C(C(O)CO)N1CCN(c2ccc(-c3ccc(N4C[C@H](COc5ccon5)OC4=O)cc3F)cn2)C=N1 (some centres unmarked) , please.
Response given: 16

Challenge: Recorded MIC90 of CN1CCN(c2ccc(-c3ccc(N4C[C@H](CNc5ccon5)OC4=O)cc3F)cn2)C=N1 , please.
Response given: 4

Challenge: Recorded MIC90 of NCC(=O)N1CCN(c2ccc(-c3ccc(N4C[C@H](CNc5ccon5)OC4=O)cc3F)cn2)C=N1 , please.
Response given: 4

Challenge: Recorded MIC90 of O=C1O[C@@H](CNc2ccon2)CN1c1ccc(-c2ccc(C3=NOCCN3)nc2)c(F)c1 , please.
Response given: 2

Challenge: Recorded MIC90 of O=C(C(O)CO)N1CCN(c2ccc(-c3ccc(N4C[C@H](CNc5ccon5)OC4=O)cc3F)cn2)C=N1 (some centres unmarked) , please.
Response given: 4

Challenge: Recorded MIC90 of O=C(CO)N1CCN(c2ccc(-c3ccc(N4C[C@H](COc5ccon5)OC4=O)cc3F)cn2)C=N1 , please.
Response given: 128

Challenge: Recorded MIC90 of O=C(O)CN1CCN(c2ccc(-c3ccc(N4C[C@H](COc5ccon5)OC4=O)cc3F)cn2)C=N1 , please.
Response given: 32

Challenge: Recorded MIC90 of Cl.O=C1O[C@@H](CNc2ccon2)CN1c1ccc(-c2ccc(N3C=NNCC3)nc2)c(F)c1 , please.
Response given: 4

Challenge: Recorded MIC90 of O=C(CO)N1CCN(c2ccc(-c3ccc(N4C[C@H](CNc5ccon5)OC4=O)cc3F)cn2)C=N1 , please.
Response given: 4

Challenge: Recorded MIC90 of Cl.O=C1O[C@@H](COc2ccon2)CN1c1ccc(-c2ccc(N3C=NNCC3)nc2)c(F)c1 , please.
Response given: 16

Challenge: Recorded MIC90 of Cl.NCC(=O)N1CCN(c2ccc(-c3ccc(N4C[C@H](COc5ccon5)OC4=O)cc3F)cn2)C=N1 , please.
Response given: 16

###

test system: Methicillin Resistant Staphylococcus epidermidis; assay: In vitro antibacterial activity, broth microdilution MIC90; type: cell-based; conditions: Staphylococcus epidermidis
attribute.measured: MIC90 (µg/mL)
Unit µg/mL implied. Number only.

Challenge: Recorded MIC90 of CC(=O)NC[C@H]1CN(c2ccc(-c3ccc(N4C=NN(C(=O)C5COC(C)(C)O5)CC4)nc3)c(F)c2)C(=O)O1 (stereo partly drawn) , please.
Response given: 4

Challenge: Recorded MIC90 of CC(=O)NC[C@H]1CN(c2ccc(-c3ccc(N4C=NNCC4)nc3)c(F)c2)C(=O)O1 , please.
Response given: 1

Challenge: Recorded MIC90 of CCOC(=O)CN1CCN(c2ccc(-c3ccc(N4C[C@H](CNC(C)=O)OC4=O)cc3F)cn2)C=N1 , please.
Response given: 1

###

test system: Vancomycin Resistant Enterococcus faecium; experiment: In vitro antibacterial activity, broth microdilution MIC90; type: cell-based; settings: strain 9, E. faecium VanA
Please respond with reported MIC90 for every item in the list.
Unit µg/mL implied. Number only.

Challenge: Recorded MIC90 of O=C1O[C@@H](CNc2ccon2)CN1c1ccc(-c2ccc(N3C=NOCC3)nc2)c(F)c1 , please.
Response given: 0.5

Challenge: Recorded MIC90 of CN1CCN(c2ccc(-c3ccc(N4C[C@H](COc5ccon5)OC4=O)cc3F)cn2)C=N1 , please.
Response given: 2

Challenge: Recorded MIC90 of Cl.O=C1O[C@@H](CNc2ccon2)CN1c1ccc(-c2ccc(N3C=NNCC3)nc2)c(F)c1 , please.
Response given: 1

Challenge: Recorded MIC90 of O=C1O[C@@H](COc2ccon2)CN1c1ccc(-c2ccc(C3=NOCCN3)nc2)c(F)c1 , please.
Response given: 1

Challenge: Recorded MIC90 of O=C(CO)N1CCN(c2ccc(-c3ccc(N4C[C@H](COc5ccon5)OC4=O)cc3F)cn2)C=N1 , please.
Response given: 2

Challenge: Recorded MIC90 of Cl.NCC(=O)N1CCN(c2ccc(-c3ccc(N4C[C@H](COc5ccon5)OC4=O)cc3F)cn2)C=N1 , please.
Response given: 2

Challenge: Recorded MIC90 of NCC(=O)N1CCN(c2ccc(-c3ccc(N4C[C@H](CNc5ccon5)OC4=O)cc3F)cn2)C=N1 , please.
Response given: 0.5

Challenge: Recorded MIC90 of O=C(C(O)CO)N1CCN(c2ccc(-c3ccc(N4C[C@H](COc5ccon5)OC4=O)cc3F)cn2)C=N1 (some centres unmarked) , please.
Response given: 2

Challenge: Recorded MIC90 of CN1CCN(c2ccc(-c3ccc(N4C[C@H](CNc5ccon5)OC4=O)cc3F)cn2)C=N1 , please.
Response given: 0.5

Challenge: Recorded MIC90 of O=C(O)CN1CCN(c2ccc(-c3ccc(N4C[C@H](COc5ccon5)OC4=O)cc3F)cn2)C=N1 , please.
Response given: 4

Challenge: Recorded MIC90 of Cl.O=C1O[C@@H](COc2ccon2)CN1c1ccc(-c2ccc(N3C=NNCC3)nc2)c(F)c1 , please.
Response given: 2

Challenge: Recorded MIC90 of O=C(CO)N1CCN(c2ccc(-c3ccc(N4C[C@H](CNc5ccon5)OC4=O)cc3F)cn2)C=N1 , please.
Response given: 0.5

Challenge: Recorded MIC90 of O=C(C(O)CO)N1CCN(c2ccc(-c3ccc(N4C[C@H](CNc5ccon5)OC4=O)cc3F)cn2)C=N1 (some centres unmarked) , please.
Response given: 0.5

Challenge: Recorded MIC90 of O=C1O[C@@H](CNc2ccon2)CN1c1ccc(-c2ccc(C3=NOCCN3)nc2)c(F)c1 , please.
Response given: 0.5

###

test system: Vancomycin Resistant Enterococcus faecium; assay: In vitro antibacterial activity, broth microdilution MIC90; assay type: cell-based; details: Enterococcus faecium; strain 9, E. faecium VanA; read-out: MIC90
Please respond with reported MIC90 for every item in the list.
Unit µg/mL implied. Number only.

Challenge: Recorded MIC90 of CC(=O)NC[C@H]1CN(c2ccc(-c3ccc(C4=NOCCN4)nc3)c(F)c2)C(=O)O1 , please.
Response given: 0.25

Challenge: Recorded MIC90 of O=C1O[C@@H](Cn2ccnn2)CN1c1ccc(-c2ccc(N3C=NOCC3)nc2)c(F)c1 , please.
Response given: 0.125

Challenge: Recorded MIC90 of CCN1C=NN(c2ccc(-c3ccc(N4C[C@H](CNC(C)=O)OC4=O)cc3F)cn2)CC1 , please.
Response given: 1

Challenge: Recorded MIC90 of COC(=O)NC[C@H]1CN(c2ccc(-c3ccc(C4=NOCCN4C)nc3)c(F)c2)C(=O)O1 , please.
Response given: 1

###

system: Linezolid and Vancomycin Resistant Enterococcus faecalis; test: In vitro antibacterial activity, broth microdilution MIC90; format: cell-based; details: strain 7, E. faecalis VanA LR
attribute.measured: MIC90 (µg/mL)
Unit µg/mL implied. Number only.

Challenge: Form entry - test system: Linezolid and Vancomycin Resistant Enterococcus faecalis; read-out: MIC90; molecule: O=C(CO)N1CCN(c2ccc(-c3ccc(N4C[C@H](COc5ccon5)OC4=O)cc3F)cn2)C=N1
Response given: 128

Challenge: Form entry - test system: Linezolid and Vancomycin Resistant Enterococcus faecalis; read-out: MIC90; molecule: O=C1O[C@@H](CNc2ccon2)CN1c1ccc(-c2ccc(C3=NOCCN3)nc2)c(F)c1
Response given: 2

###

test system: Vancomycin Resistant Enterococcus faecium; test: In vitro antibacterial activity, broth microdilution MIC90; type: cell-based; conditions: Enterococcus faecium; strain 9, E. faecium VanA; read-out: MIC90
Param label: returns YES when MIC90 < 0.5 µg/mL, returns NO otherwise, including exact equality.

Challenge: Does this molecule meet the criterion MIC90 < 0.5 µg/mL? COC(=O)NC[C@H]1CN(c2ccc(-c3ccc(N4C=NOCC4)nc3)c(F)c2)C(=O)O1
Response given: YES

Challenge: Does this molecule meet the criterion MIC90 < 0.5 µg/mL? CN1CCON=C1c1ccc(-c2ccc(N3C[C@H](CO)OC3=O)cc2F)cn1
Response given: NO

Challenge: Does this molecule meet the criterion MIC90 < 0.5 µg/mL? CC(=O)NC[C@H]1CN(c2ccc(-c3ccc(N4C=NN(C(=O)COC(=O)CCC(=O)O)CC4)nc3)c(F)c2)C(=O)O1
Response given: NO

Challenge: Does this molecule meet the criterion MIC90 < 0.5 µg/mL? CC(=O)NC[C@H]1CN(c2ccc(-c3ccc(C4=NOCCN4C)nc3)c(F)c2)C(=O)O1
Response given: NO

Challenge: Does this molecule meet the criterion MIC90 < 0.5 µg/mL? COC(=O)NC[C@H]1CN(c2ccc(-c3ccc(N4CCON=C4C)nc3)c(F)c2)C(=O)O1
Response given: NO

Challenge: Does this molecule meet the criterion MIC90 < 0.5 µg/mL? CC(=O)NC[C@H]1CN(c2ccc(-c3ccc(N4C=NOCC4)nc3)c(F)c2)C(=O)O1
Response given: YES

Challenge: Does this molecule meet the criterion MIC90 < 0.5 µg/mL? CC(=O)NC[C@H]1CN(c2ccc(-c3ccc(N4CCON=C4C)nc3)c(F)c2)C(=O)O1
Response given: NO

Challenge: Does this molecule meet the criterion MIC90 < 0.5 µg/mL? CC(=O)NC[C@H]1CN(c2ccc(N3CCOCC3)c(F)c2)C(=O)O1 [LZD, Linezolid, reference compound]
Response given: NO

Challenge: Does this molecule meet the criterion MIC90 < 0.5 µg/mL? O=C1O[C@@H](CO)CN1c1ccc(-c2ccc(N3C=NOCC3)nc2)c(F)c1
Response given: NO

Challenge: Does this molecule meet the criterion MIC90 < 0.5 µg/mL? O=C1O[C@@H](Cn2ccnn2)CN1c1ccc(-c2ccc(C3=NOCCN3)nc2)c(F)c1
Response given: YES
